Source: patent US20140377219A1

Assay: Cytotoxicity in PBMC (XTT)
Format: cell-based
Conditions: human; PBMC, XTT, seven days
REPORTED_PROPERTY: CC50 at 7 days

query: Quick one: CC50 at 7 days of Cc1nc(C(NC(=O)C(=O)Nc2ccc(Cl)c(F)c2)C2CCCCN2)sc1CO (stereo not shown) [Compound 27] ?
result: > 104 µM

###

Tested on: primary HIV-1 isolate 92US657 (subtype B, R5)
Test: Neutralization assay in PBMC (p24 ELISA)
Details: Human immunodeficiency virus 1, PBMC, read-out: IC50 (μM) ± S.D., inhibitory activity on infection
REPORTED_PROPERTY: IC50 (µM)
The figure you give is taken to be in µM; do not add the unit.

query: Quick one: IC50 of Cc1nc(C(NC(=O)C(=O)Nc2ccc(Cl)c(F)c2)C2CCCCN2)sc1CO (stereo not shown) ?
result: 12.5
